study system: UniProt:P25100
Sequence (P25100 whole entry): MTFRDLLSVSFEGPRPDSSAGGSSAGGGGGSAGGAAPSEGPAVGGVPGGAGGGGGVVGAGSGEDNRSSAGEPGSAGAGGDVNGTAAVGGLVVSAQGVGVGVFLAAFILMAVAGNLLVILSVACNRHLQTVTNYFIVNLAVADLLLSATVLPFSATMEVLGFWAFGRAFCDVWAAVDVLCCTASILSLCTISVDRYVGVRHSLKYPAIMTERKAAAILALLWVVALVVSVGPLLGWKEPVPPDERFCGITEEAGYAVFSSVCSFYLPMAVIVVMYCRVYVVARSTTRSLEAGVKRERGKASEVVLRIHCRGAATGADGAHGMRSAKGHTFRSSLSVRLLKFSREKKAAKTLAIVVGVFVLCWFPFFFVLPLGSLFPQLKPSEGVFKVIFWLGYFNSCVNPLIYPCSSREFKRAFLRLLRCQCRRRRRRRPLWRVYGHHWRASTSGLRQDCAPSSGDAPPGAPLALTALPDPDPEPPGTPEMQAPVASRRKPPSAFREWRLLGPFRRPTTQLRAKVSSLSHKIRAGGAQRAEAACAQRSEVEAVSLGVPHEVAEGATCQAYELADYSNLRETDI
reported endpoint: pKi
Just the number, please; pKi means minus log10 of the concentration in mol/L.

For the compound shown here, "COC(=O)C1(c2ccccc2)CCN(CCCNC(=O)C(c2ccc(C)cc2)c2ccc(C)cc2)CC1" , give the reported pKi.
6.01

Further, for "Cc1ccc(C2(c3ccc(C)cc3)CC(=O)N(CCCN3CCC(C#N)(c4ccccc4Cl)CC3)C2=O)cc1" ?
6.66

Next: "Cc1ccc(C(O)(C(=O)NCCCN2CCC(C#N)(c3ccccc3C)CC2)c2ccc(C)cc2)cc1"
5.82

Do the same for "Cc1ccc(C(O)(C(=O)NCCCN2CCC(C#N)(c3ccccc3)CC2)c2ccc(C)cc2)cc1" please
5.32
